Please go through the items and note down their Activity.
tgt: Toll-like receptor 1/2 (Homo sapiens, UniProt O60603+Q15399)
Sequence (O60603 whole entry): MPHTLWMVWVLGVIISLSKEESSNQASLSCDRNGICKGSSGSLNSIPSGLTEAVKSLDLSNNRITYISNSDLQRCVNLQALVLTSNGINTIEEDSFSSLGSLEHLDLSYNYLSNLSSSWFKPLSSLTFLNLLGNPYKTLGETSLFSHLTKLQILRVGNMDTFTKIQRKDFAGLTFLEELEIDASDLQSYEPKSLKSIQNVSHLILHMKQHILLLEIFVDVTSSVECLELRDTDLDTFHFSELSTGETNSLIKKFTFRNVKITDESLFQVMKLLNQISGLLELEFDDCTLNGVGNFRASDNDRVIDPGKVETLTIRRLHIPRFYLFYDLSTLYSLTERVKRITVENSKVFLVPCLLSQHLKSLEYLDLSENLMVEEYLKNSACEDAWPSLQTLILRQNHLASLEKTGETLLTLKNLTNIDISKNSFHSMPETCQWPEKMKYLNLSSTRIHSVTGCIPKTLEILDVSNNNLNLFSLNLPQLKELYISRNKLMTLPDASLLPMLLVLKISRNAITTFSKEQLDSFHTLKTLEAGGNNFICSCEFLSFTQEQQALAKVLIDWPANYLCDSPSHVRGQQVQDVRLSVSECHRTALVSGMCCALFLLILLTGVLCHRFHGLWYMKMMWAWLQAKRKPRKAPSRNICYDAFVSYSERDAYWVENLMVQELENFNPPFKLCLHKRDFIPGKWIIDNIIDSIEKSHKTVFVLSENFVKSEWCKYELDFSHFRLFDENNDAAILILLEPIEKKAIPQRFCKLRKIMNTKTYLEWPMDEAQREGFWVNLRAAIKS
Sequence (Q15399 whole entry): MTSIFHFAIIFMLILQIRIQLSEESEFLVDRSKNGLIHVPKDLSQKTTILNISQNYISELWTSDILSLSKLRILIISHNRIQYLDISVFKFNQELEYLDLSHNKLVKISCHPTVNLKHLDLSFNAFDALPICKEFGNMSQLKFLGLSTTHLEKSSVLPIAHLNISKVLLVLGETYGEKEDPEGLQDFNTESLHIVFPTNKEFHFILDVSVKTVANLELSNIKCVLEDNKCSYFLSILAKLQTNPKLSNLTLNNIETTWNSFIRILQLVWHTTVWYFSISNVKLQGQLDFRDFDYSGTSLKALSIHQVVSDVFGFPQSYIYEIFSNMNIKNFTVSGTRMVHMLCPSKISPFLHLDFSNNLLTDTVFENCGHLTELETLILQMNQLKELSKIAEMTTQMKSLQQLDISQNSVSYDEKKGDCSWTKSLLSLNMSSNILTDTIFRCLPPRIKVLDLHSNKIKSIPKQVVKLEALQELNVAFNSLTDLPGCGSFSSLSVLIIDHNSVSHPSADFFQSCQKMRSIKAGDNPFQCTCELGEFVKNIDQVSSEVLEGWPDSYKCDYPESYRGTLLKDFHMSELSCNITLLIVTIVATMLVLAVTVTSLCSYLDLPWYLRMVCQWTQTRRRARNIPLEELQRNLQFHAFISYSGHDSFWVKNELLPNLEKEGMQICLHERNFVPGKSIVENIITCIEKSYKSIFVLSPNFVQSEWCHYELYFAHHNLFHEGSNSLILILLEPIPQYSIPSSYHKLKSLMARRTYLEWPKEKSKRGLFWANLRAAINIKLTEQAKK
protocolNotes: Agonist activity at TLR1/TLR2 in human THP-1 derived macrophages assessed as stimulation of TNF alpha release measured for 4 hrs by ELISA based assay relative to diprovocim-1
Assay type: cell-based
Set-up: concentration or dose not given beside the values
testSettings: filed as agonist
Express the reported value numerically, then name its unit.

Returns the measured Activity for the input compound. Input: CC(C)(C)OC(=O)NCC(=O)NCCCCCCCCCCCCNC(=O)[C@@H]1CN(C(=O)c2ccc(C(=O)N3C[C@@H](C(=O)N[C@H]4C[C@@H]4c4ccccc4)[C@H](C(=O)N[C@H]4C[C@@H]4c4ccccc4)C3)cc2)C[C@H]1C(=O)N[C@H]1C[C@@H]1c1ccccc1
90%

Next up:
I am curious: what Activity value has been reported for O=C(CO)OCCCCCCCCCCCCNC(=O)[C@@H]1CN(C(=O)c2ccc(C(=O)N3C[C@@H](C(=O)N[C@H]4C[C@@H]4c4ccccc4)[C@H](C(=O)N[C@H]4C[C@@H]4c4ccccc4)C3)cc2)C[C@H]1C(=O)N[C@H]1C[C@@H]1c1ccccc1 ?
100%

---

tgt: Toll-like receptor 1/2 (Homo sapiens, UniProt O60603+Q15399)
protocolNotes: Agonist activity at TLR1/TLR2 in human THP-1 derived macrophages assessed as stimulation of TNF alpha release measured for 4 hrs by ELISA based assay relative to diprovocim-1
Assay type: cell-based
Set-up: concentration or dose not given beside the values
testSettings: filed as agonist
readoutKind: Activity (%)
Answers are plain numbers, in %.

Which Activity reading was recorded for the molecule O=C(CNC(=O)C(F)(F)F)OCCCCCCCCCCCCNC(=O)[C@@H]1CN(C(=O)c2ccc(C(=O)N3C[C@@H](C(=O)N[C@H]4C[C@@H]4c4ccccc4)[C@H](C(=O)N[C@H]4C[C@@H]4c4ccccc4)C3)cc2)C[C@H]1C(=O)N[C@H]1C[C@@H]1c1ccccc1 ?
100

Next:
Could you share which Activity value was measured for CC(=O)NCC(=O)OCCCCCCCCCCCCNC(=O)[C@@H]1CN(C(=O)c2ccc(C(=O)N3C[C@@H](C(=O)N[C@H]4C[C@@H]4c4ccccc4)[C@H](C(=O)N[C@H]4C[C@@H]4c4ccccc4)C3)cc2)C[C@H]1C(=O)N[C@H]1C[C@@H]1c1ccccc1 ?
90

---

Answer each item with its documented Activity.
tgt: Toll-like receptor 1/2 (Homo sapiens, UniProt O60603+Q15399)
protocolNotes: Agonist activity at TLR1/TLR2 in human THP-1 derived macrophages assessed as stimulation of TNF alpha release measured for 4 hrs by ELISA based assay relative to diprovocim-1
Format: cell-based
Parameters: concentration or dose not given beside the values
testSettings: filed as agonist
Numbers only, in %.

List reported Activity for each of these molecules:
1. CC[C@H](C)[C@H](NC(=O)OC(C)(C)C)C(=O)OCCCCCCCCCCCCNC(=O)[C@@H]1CN(C(=O)c2ccc(C(=O)N3C[C@@H](C(=O)N[C@H]4C[C@@H]4c4ccccc4)[C@H](C(=O)N[C@H]4C[C@@H]4c4ccccc4)C3)cc2)C[C@H]1C(=O)N[C@H]1C[C@@H]1c1ccccc1
2. O=C(CNC(=O)OCC1c2ccccc2-c2ccccc21)OCCCCCCCCCCCCNC(=O)[C@@H]1CN(C(=O)c2ccc(C(=O)N3C[C@@H](C(=O)N[C@H]4C[C@@H]4c4ccccc4)[C@H](C(=O)N[C@H]4C[C@@H]4c4ccccc4)C3)cc2)C[C@H]1C(=O)N[C@H]1C[C@@H]1c1ccccc1
3. O=C(O)[C@@H]1CN(C(=O)c2ccc(C(=O)N3C[C@@H](C(=O)N[C@H]4C[C@@H]4c4ccccc4)[C@H](C(=O)N[C@H]4C[C@@H]4c4ccccc4)C3)cc2)C[C@H]1C(=O)N[C@H]1C[C@@H]1c1ccccc1
4. CC(=O)OCCCCCCCCCCCCNC(=O)[C@@H]1CN(C(=O)c2ccc(C(=O)N3C[C@@H](C(=O)N[C@H]4C[C@@H]4c4ccccc4)[C@H](C(=O)N[C@H]4C[C@@H]4c4ccccc4)C3)cc2)C[C@H]1C(=O)N[C@H]1C[C@@H]1c1ccccc1

[100, 100, 110, 90]

---

Exercise: state measured pEC50 for each of the compounds provided.
tgt: Toll-like receptor 1/2 (Homo sapiens, UniProt O60603+Q15399)
protocolNotes: Agonist activity at TLR1/TLR2 in human THP-1 derived macrophages assessed as stimulation of TNF alpha release measured for 4 hrs by ELISA based assay
One number for each entry, as −log10 of the molar value.

Worked examples, 2 compounds total:
# query: pEC50 of entry CCCCCCCCCCCCCCCCNC(=O)[C@@H]1CN(C(=O)c2ccc(C(=O)N3C[C@@H](C(=O)N[C@H]4C[C@@H]4c4ccccc4)[C@H](C(=O)N[C@H]4C[C@@H]4c4ccccc4)C3)cc2)C[C@H]1C(=O)N[C@H]1C[C@@H]1c1ccccc1
9.30

What about COC(=O)CCCCCCCCCCCNC(=O)[C@@H]1CN(C(=O)c2ccc(C(=O)N3C[C@@H](C(=O)N[C@H]4C[C@@H]4c4ccccc4)[C@H](C(=O)N[C@H]4C[C@@H]4c4ccccc4)C3)cc2)C[C@H]1C(=O)N[C@H]1C[C@@H]1c1ccccc1 ?
9.70

Now look at this one.
Reported pEC50, compound CCCCCCCCCCCCNC(=O)[C@@H]1CN(C(=O)c2ccc(C(=O)N3C[C@@H](C(=O)N[C@H]4C[C@@H]4c4ccccc4)[C@H](C(=O)N[C@H]4C[C@@H]4c4ccccc4)C3)cc2)C[C@H]1C(=O)N[C@H]1C[C@@H]1c1ccccc1 : ____
10.00

---

tgt: Toll-like receptor 1/2 (Homo sapiens, UniProt O60603+Q15399)
protocolNotes: Agonist activity at TLR1/TLR2 in human THP-1 derived macrophages assessed as stimulation of TNF alpha release measured for 4 hrs by ELISA based assay relative to diprovocim-1
Type: cell-based
Set-up: concentration or dose not given beside the values
testSettings: filed as agonist
readoutKind: Activity
Could you kindly put the unit after your number?

I have 4 compounds here; please give me Activity for each one.
1. COC(=O)CCOCCOCCOCCNC(=O)[C@@H]1CN(C(=O)c2ccc(C(=O)N3C[C@@H](C(=O)N[C@H]4C[C@@H]4c4ccccc4)[C@H](C(=O)N[C@H]4C[C@@H]4c4ccccc4)C3)cc2)C[C@H]1C(=O)N[C@H]1C[C@@H]1c1ccccc1
2. Nc1ccc(CCCCCCCCNC(=O)[C@@H]2CN(C(=O)c3ccc(C(=O)N4C[C@@H](C(=O)N[C@H]5C[C@@H]5c5ccccc5)[C@H](C(=O)N[C@H]5C[C@@H]5c5ccccc5)C4)cc3)C[C@H]2C(=O)N[C@H]2C[C@@H]2c2ccccc2)cc1
3. CC(C)(C)OC(=O)NCC(=O)OCCCCCCCCCCCCNC(=O)[C@@H]1CN(C(=O)c2ccc(C(=O)N3C[C@@H](C(=O)N[C@H]4C[C@@H]4c4ccccc4)[C@H](C(=O)N[C@H]4C[C@@H]4c4ccccc4)C3)cc2)C[C@H]1C(=O)N[C@H]1C[C@@H]1c1ccccc1
4. O=C(O)CNC(=O)CCCCCCCCCCCNC(=O)[C@@H]1CN(C(=O)c2ccc(C(=O)N3C[C@@H](C(=O)N[C@H]4C[C@@H]4c4ccccc4)[C@H](C(=O)N[C@H]4C[C@@H]4c4ccccc4)C3)cc2)C[C@H]1C(=O)N[C@H]1C[C@@H]1c1ccccc1

110%
100%
100%
110%

---

For each record, write down the corresponding Activity.
tgt: Toll-like receptor 1/2 (Mus musculus) (UniProt Q9QUN7+Q9EPQ1)
protocolNotes: Agonist activity at TLR1/TLR2 in wild type C57BL/6J mouse macrophages assessed as stimulation of TNF alpha release measured for 4 hrs by ELISA based assay relative to diprovocim-1
Type: cell-based
Set-up: concentration or dose not given beside the values
testSettings: Macrophage, filed as agonist
Numbers only, in %.

Hi team, please reply with Activity for each item in this list.
1. CC(C)(C)OC(=O)NCCOCCCCCCCCCCCCNC(=O)[C@@H]1CN(C(=O)c2ccc(C(=O)N3C[C@@H](C(=O)N[C@H]4C[C@@H]4c4ccccc4)[C@H](C(=O)N[C@H]4C[C@@H]4c4ccccc4)C3)cc2)C[C@H]1C(=O)N[C@H]1C[C@@H]1c1ccccc1
2. O=C(CNC(=O)c1ccc(C(=O)O)cc1)OCCCCCCCCCCCCNC(=O)[C@@H]1CN(C(=O)c2ccc(C(=O)N3C[C@@H](C(=O)N[C@H]4C[C@@H]4c4ccccc4)[C@H](C(=O)N[C@H]4C[C@@H]4c4ccccc4)C3)cc2)C[C@H]1C(=O)N[C@H]1C[C@@H]1c1ccccc1
3. CC(C)(C)OC(=O)CNC(=O)CCCCCCCCCCCNC(=O)[C@@H]1CN(C(=O)c2ccc(C(=O)N3C[C@@H](C(=O)N[C@H]4C[C@@H]4c4ccccc4)[C@H](C(=O)N[C@H]4C[C@@H]4c4ccccc4)C3)cc2)C[C@H]1C(=O)N[C@H]1C[C@@H]1c1ccccc1
4. O=C(O)c1ccc(C(=O)OCCCCCCCCCCCCNC(=O)[C@@H]2CN(C(=O)c3ccc(C(=O)N4C[C@@H](C(=O)N[C@H]5C[C@@H]5c5ccccc5)[C@H](C(=O)N[C@H]5C[C@@H]5c5ccccc5)C4)cc3)C[C@H]2C(=O)N[C@H]2C[C@@H]2c2ccccc2)cc1

1: 220; 2: 60; 3: 70; 4: 120

Would you mind giving Activity for every molecule in the list below?
1. CC(C)(C)OC(=O)NCCCCCCCCCCCCNC(=O)[C@@H]1CN(C(=O)c2ccc(C(=O)N3C[C@@H](C(=O)N[C@H]4C[C@@H]4c4ccccc4)[C@H](C(=O)N[C@H]4C[C@@H]4c4ccccc4)C3)cc2)C[C@H]1C(=O)N[C@H]1C[C@@H]1c1ccccc1
2. O=C(CNC(=O)OCC(Cl)(Cl)Cl)OCCCCCCCCCCCCNC(=O)[C@@H]1CN(C(=O)c2ccc(C(=O)N3C[C@@H](C(=O)N[C@H]4C[C@@H]4c4ccccc4)[C@H](C(=O)N[C@H]4C[C@@H]4c4ccccc4)C3)cc2)C[C@H]1C(=O)N[C@H]1C[C@@H]1c1ccccc1

120
300

Here are 2 molecules. What values of Activity were reported for them?
1. CC(=O)OCCCCCCCCCCCCNC(=O)[C@@H]1CN(C(=O)c2ccc(C(=O)N3C[C@@H](C(=O)N[C@H]4C[C@@H]4c4ccccc4)[C@H](C(=O)N[C@H]4C[C@@H]4c4ccccc4)C3)cc2)C[C@H]1C(=O)N[C@H]1C[C@@H]1c1ccccc1
2. O=C(O)c1ccc(C(=O)NCCOCCCCCCCCCCCCNC(=O)[C@@H]2CN(C(=O)c3ccc(C(=O)N4C[C@@H](C(=O)N[C@H]5C[C@@H]5c5ccccc5)[C@H](C(=O)N[C@H]5C[C@@H]5c5ccccc5)C4)cc3)C[C@H]2C(=O)N[C@H]2C[C@@H]2c2ccccc2)cc1

140
50
